Reference source: patent US9670162B2

- assayed.system: human ALDH2*2 recombinant mutant enzyme (E487K) (Homo sapiens, UniProt P05091, E504K)
- Construct: His-tag (pTrcHis vector) (N); made in house; host or cells: E. coli BL21
- Sequence (P05091 18-517 E504K): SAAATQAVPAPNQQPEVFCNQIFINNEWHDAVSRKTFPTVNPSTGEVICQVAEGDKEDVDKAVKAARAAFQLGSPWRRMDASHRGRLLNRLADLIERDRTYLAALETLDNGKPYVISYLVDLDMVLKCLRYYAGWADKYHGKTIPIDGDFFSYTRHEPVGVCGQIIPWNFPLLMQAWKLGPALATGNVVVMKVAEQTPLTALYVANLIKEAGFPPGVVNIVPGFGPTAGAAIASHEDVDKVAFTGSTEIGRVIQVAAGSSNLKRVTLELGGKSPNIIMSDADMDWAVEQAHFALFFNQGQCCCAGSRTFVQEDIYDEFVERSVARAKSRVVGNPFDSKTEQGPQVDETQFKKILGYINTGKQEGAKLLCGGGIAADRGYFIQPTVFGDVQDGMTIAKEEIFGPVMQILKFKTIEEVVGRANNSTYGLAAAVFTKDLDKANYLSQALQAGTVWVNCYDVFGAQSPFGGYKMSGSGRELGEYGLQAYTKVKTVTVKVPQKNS
- assay.text: ALDH2 enzymatic assay (NADH at 340 nm), recombinant mutant enzyme
- Assay type: biochemical
- Parameters: key: −: no activation or inhibition; +: activation less than control 1; ++: activation similar to control 1, within 10%; +++: activation more than control 1 and less than control (compound 161); ++++: activation similar to compound 161, within 10%
- particulars: activation relative to benchmarks control 1 and compound 161
property.measured: ALDH2 (mutant)

smiles.representation: COc1ccc(CNC(=O)c2c(C)ccnc2OCC2CCCC2)cc1F
ALDH2 (mutant): +
--
smiles.representation: COc1ccc(CNC(=O)c2c(Cl)cc[n+]([O-])c2OCC2CC2)cc1F
ALDH2 (mutant): ++
--
smiles.representation: COc1ccc(CNC(=O)c2c(Cl)cccc2Br)cc1O
ALDH2 (mutant): +
--
smiles.representation: COc1ccc(CNC(=O)c2c(Cl)ccnc2S(C)(=O)=O)cc1F
ALDH2 (mutant): +

Would you mind telling me what ALDH2 (mutant) value was observed for `COc1ccc(CNC(=O)c2cc(Br)ccc2C)cc1` ? +

Would you mind telling me what ALDH2 (mutant) value was observed for `COc1ccc(CNS(=O)(=O)c2c(Cl)cccc2NCC2CC2)cc1F` ? +

Would you mind telling me what ALDH2 (mutant) value was observed for `COc1ccc(CNC(=O)c2c(Cl)ccnc2SC)cc1F` ? ++

Would you mind telling me what ALDH2 (mutant) value was observed for `COc1ccc(CNC(=O)c2c(C(F)(F)F)ccnc2OC(C)C)cc1F` ? +

Would you mind telling me what ALDH2 (mutant) value was observed for `COc1ccc(CNC(=O)c2c(Cl)cccc2NCc2ccc(Cl)cc2)cc1F` ? −

Would you mind telling me what ALDH2 (mutant) value was observed for `COc1cc(F)c(CNC(=O)c2c(Cl)ccnc2OCC(C)C)cc1F` ? ++++

Would you mind telling me what ALDH2 (mutant) value was observed for `CCCS(=O)(=O)c1nccc(Cl)c1C(=O)NCc1ccc(OC)c(F)c1` ? +

###

- assayed.system: human ALDH2*2 recombinant mutant enzyme (E487K) (Homo sapiens, UniProt P05091, E504K)
- Construct: His-tag (pTrcHis vector) (N); made in house; host or cells: E. coli BL21
- assay.text: ALDH2 enzymatic assay (NADH at 340 nm), recombinant mutant enzyme
- Type: biochemical
- Set-up: key: −: no activation or inhibition; +: activation less than control 1; ++: activation similar to control 1, within 10%; +++: activation more than control 1 and less than control (compound 161); ++++: activation similar to compound 161, within 10%
- particulars: activation relative to benchmarks control 1 and compound 161
- Text: ALDH2 catalyzes the oxidative reaction of substrate acetaldehyde to acetic acid using NAD^+ as a cofactor. Enzymatic activity, or catalytic rate, of aldehyde dehydrogenase (ALDH2) can be measured spectrophotometrically at UV wavelength λ340 nm by the accumulation of reduced product NADH derived from NAD^+. […] This method is well-established in the literature [e.g. D. K. Rex, W. F. Bosron, J. E. Smialek, T. K. Li, Alcohol Clin Exp Res 9, 147 (1985)]. […]
property.measured: ALDH2 (mutant)

molecule: CCCOc1nccc(Cl)c1C(=O)NCc1ccc(OC)c(F)c1 [Compound 194]
observed.result: +++
--
molecule: COc1ccc(CNC(=O)c2c(Cl)cccc2OC(C)C)cc1F [Compound 140]
observed.result: +++
--
molecule: COc1ccc(CNC(=O)c2c(Cl)ccnc2OCC2CC2)cc1C [Compound 256]
observed.result: +
--
molecule: COc1ccc(CNC(=O)c2c(C)ccnc2OCC(C)C)cc1F [Compound 232]
observed.result: +
--
molecule: COc1ccc(CNC(=O)c2c(C)cccc2Br)cc1 [Compound 113]
observed.result: +

Give the reported ALDH2 (mutant) for O=C(NCc1ccc(F)c(F)c1)c1c(Cl)ccnc1OCC1CC1 [Compound 180] (system: human ALDH2*2 recombinant mutant enzyme (E487K) (Homo sapiens, UniProt P05091, E504K)). +

Give the reported ALDH2 (mutant) for COc1ccc(CNC(=O)c2c(Cl)cccc2NCCO)cc1F [Compound 109] (system: human ALDH2*2 recombinant mutant enzyme (E487K) (Homo sapiens, UniProt P05091, E504K)). ++

Give the reported ALDH2 (mutant) for CC(C)Oc1ccc(CNC(=O)c2c(Cl)ccnc2Cl)cc1F [Compound 177] (system: human ALDH2*2 recombinant mutant enzyme (E487K) (Homo sapiens, UniProt P05091, E504K)). −
